Hello, the source for this data is PubChem BioAssay (EPA / NIEHS), in case you need it.

- Read-out: Human Leukocyte Antigen - DR isotype (HLADR), HLA-DRA (gene 3122)
- Assay name: BSK_CASM3C_HLADR: BioMAP Diversity Plus: CASM3C Assay for Human Leukocyte Antigen - DR isotype (HLADR) Biomarker Activity (AID 2283043);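 note: cell-surface HLA-DR protein level quantified by ELISA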
- Condition notes: primary human coronary artery smooth muscle cells; actives raise or lower the signal
Calls of active or inactive are those of the source. Rule for the calls: active = hit-call score of the fitted dose curve at least 0.9, where 1 is the maximum; inactive = score below 0.9.
Outcome field: choose from y (active), n (inactive)

Consider the following illustrative entries.
{"Compound": "N#CCCC(Br)(C#N)CBr (centres undefined)", "Qualitative label": "y"}
{"Compound": "Cc1cc(Cl)ccc1OC(C)C(=O)O (centres undefined)", "Qualitative label": "n"}
{"Compound": "OCCCCO", "Qualitative label": "n"}
{"Compound": "OC(Cc1ccccc1Cl)(Cn1cncn1)C1(Cl)CC1 (centres undefined)", "Qualitative label": "n"}
{"Compound": "[Cl][Sn]([c]1ccccc1)([c]1ccccc1)[c]1ccccc1", "Qualitative label": "y"}

So what was the verdict on CCOP(=S)(OCC)SCS(=O)(=O)C(C)(C)C in this test?
n

Which outcome was entered for the compound COc1ccccc1N in this test?
n

GET /call?item= COCC(=O)N(c1c(C)cccc1C)[C@H](C)C(=O)OC returns the recorded outcome of this test.
n

Please share the test call associated with CCOC(=O)C(SP(=S)(OC)OC)c1ccccc1 (centres undefined) .
y

I would be grateful if you could indicate the recorded call for OCCN(CCO)CCO .
n

Kindly provide the recorded test outcome for the following compound: O=[N+]([O-])c1ccc(Nc2ccccc2)cc1
n

Which result was noted for this compound in the test: O=S(=O)(c1ccc(Cl)cc1)c1cc(Cl)c(Cl)cc1Cl
n

Tell me the assay call for Cc1ccc2nc3sc(=O)sc3nc2c1 please.
n

Just curious, what result did CC(C)(COCC1CO1)COCC1CO1 (centres undefined) get here?
n
